Just for reference, patent US20250177414A1 is where these values come from.

assay: clinical; conditions: human, plasma, po, 9 mg/day
reported-endpoint: Vd/F (L)
Write it as a number; the unit L goes unstated.

What value of Vd/F has been recorded for this entry: C[C@H](Nc1ccc2c(c1)OCCn1cc(N3C(=O)OC[C@H]3C(F)F)nc1-2)C(N)=O 155
